# runDescription: microbe, parasite or virus in culture
# Type: functional
# cond: Mycobacterium tuberculosis
Counter-ions that a name gives are not always drawn. Active and inactive are the calls of the source.
# key: entry, value: CC50

>  <compound>
CCCCN(CCCC)CCC(O)c1cc2c(Cl)cc(Cl)cc2c2cc(C(F)(F)F)ccc12 (stereo not given) [HALOFANTRINE HYDROCHLORIDE]

>  <CC50>
> 40 µM (active)

$$$$
>  <compound>
CN1C(C(=O)NCc2ccc(OC(F)(F)F)cc2)CC2Cn3c(nc4cc(Cl)c(Cl)cc43)C21 (stereo not given)

>  <CC50>
34.1 µM (active)

$$$$
>  <compound>
COCCN(C(=O)C1CC(=O)N(Cc2ccccc2)C1)c1nc(-c2ccc([N+](=O)[O-])cc2)cs1 (stereo not given)

>  <CC50>
> 40 µM (active)

$$$$
>  <compound>
CCN(CC)c1ccc2c(Cl)c(Br)c(=O)oc2c1

>  <CC50>
> 40 µM (active)

$$$$
>  <compound>
O=c1/c(=C\c2ccc(O)cc2)sc2n1C(c1ccccc1)C(c1ccccc1)=NN=2 (stereo not given)

>  <CC50>
33 µM (active)

$$$$

---

# key: entry, value: EC50
# targetUnderTest: Endoribonuclease toxin MazF (Escherichia coli K-12, UniProt P0AE70)
# Sequence (P0AE70 whole entry): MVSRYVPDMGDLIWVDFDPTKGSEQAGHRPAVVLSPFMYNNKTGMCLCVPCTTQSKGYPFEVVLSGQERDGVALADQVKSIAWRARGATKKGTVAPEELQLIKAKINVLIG
# runDescription: substrate-only fluorescence increase artefacts – biochemical, single-stranded RNase substrate, counter-screen for MazEF activator project, dose response (AID 588502)
# Assay type: functional
The source made the active and inactive calls.
observable: EC50

>  <chemicalSmiles>
Cc1ccc(S(=O)(=O)N2CCN(CC(=O)NC(=O)NCc3ccccc3)CC2)cc1C

>  <observable>
EC50

>  <experimentalResult>
> 99 µM (inactive)

$$$$
>  <chemicalSmiles>
O=[N+]([O-])c1ccc(N2CCCC2)c2ncccc12

>  <observable>
EC50

>  <experimentalResult>
> 99 µM (inactive)

$$$$
>  <chemicalSmiles>
O=C(COC(=O)c1ccccc1C(=O)N1CCN(c2ccccc2)CC1)NCc1ccccc1

>  <observable>
EC50

>  <experimentalResult>
> 99 µM (inactive)

$$$$
>  <chemicalSmiles>
CC(=O)N1CC[C+]([N-]NS(=O)(=O)c2cccc([N+](=O)[O-])c2)CC1

>  <observable>
EC50

>  <experimentalResult>
23.9 µM (inactive)

$$$$

---

# targetUnderTest: Aurora kinase A (Homo sapiens, UniProt O14965);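 further: value from the Navigating the Kinome kinase panel profiling, panel entry STK6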
# Sequence (O14965 whole entry): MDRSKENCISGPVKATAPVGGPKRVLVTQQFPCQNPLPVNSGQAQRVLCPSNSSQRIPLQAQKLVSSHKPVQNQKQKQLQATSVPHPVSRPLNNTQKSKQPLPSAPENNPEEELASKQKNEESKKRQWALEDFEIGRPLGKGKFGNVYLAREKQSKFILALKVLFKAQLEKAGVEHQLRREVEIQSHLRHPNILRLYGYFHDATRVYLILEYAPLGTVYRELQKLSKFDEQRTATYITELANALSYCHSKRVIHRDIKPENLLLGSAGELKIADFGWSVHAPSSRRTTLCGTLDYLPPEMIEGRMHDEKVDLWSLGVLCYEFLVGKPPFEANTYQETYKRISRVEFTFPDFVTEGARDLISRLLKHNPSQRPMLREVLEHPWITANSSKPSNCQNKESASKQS
# Assay type: functional
Activity calls are given as the source filed them.
Classes used: YES for active, NO for inactive

>  <molecule>
Cc1ccc(C)c(NC(=O)c2cc(-c3ccco3)nc3ccccc23)c1

>  <assignedLabel>
YES

$$$$
>  <molecule>
CN1CCC(c2c(O)cc(O)c3c(=O)cc(-c4ccccc4Cl)oc23)C(O)C1 (centres undefined)

>  <assignedLabel>
NO

$$$$
>  <molecule>
COc1ccc(Nc2nccc(Nc3ccccc3C(=O)O)n2)cc1O

>  <assignedLabel>
YES

$$$$
>  <molecule>
COc1ccc(C2=NNc3cccc4c(OC)ccc2c34)cc1OC

>  <assignedLabel>
NO

$$$$

---

# targetUnderTest: Corticotropin-releasing factor receptor 2/Corticotropin-releasing factor-binding protein (Homo sapiens, UniProt P24387+Q13324)
# Sequence (Q13324 whole entry): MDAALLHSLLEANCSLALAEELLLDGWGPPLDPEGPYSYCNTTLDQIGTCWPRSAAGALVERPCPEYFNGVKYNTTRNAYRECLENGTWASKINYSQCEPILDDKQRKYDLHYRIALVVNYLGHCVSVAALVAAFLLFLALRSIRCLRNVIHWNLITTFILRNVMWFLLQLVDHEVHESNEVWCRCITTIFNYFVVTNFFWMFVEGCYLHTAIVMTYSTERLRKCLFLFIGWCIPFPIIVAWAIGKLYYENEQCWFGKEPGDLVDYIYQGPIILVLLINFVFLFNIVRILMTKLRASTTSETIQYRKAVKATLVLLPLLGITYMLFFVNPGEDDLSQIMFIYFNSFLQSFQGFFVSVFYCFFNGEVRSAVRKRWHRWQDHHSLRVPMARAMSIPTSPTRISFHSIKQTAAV
# Sequence (P24387 whole entry): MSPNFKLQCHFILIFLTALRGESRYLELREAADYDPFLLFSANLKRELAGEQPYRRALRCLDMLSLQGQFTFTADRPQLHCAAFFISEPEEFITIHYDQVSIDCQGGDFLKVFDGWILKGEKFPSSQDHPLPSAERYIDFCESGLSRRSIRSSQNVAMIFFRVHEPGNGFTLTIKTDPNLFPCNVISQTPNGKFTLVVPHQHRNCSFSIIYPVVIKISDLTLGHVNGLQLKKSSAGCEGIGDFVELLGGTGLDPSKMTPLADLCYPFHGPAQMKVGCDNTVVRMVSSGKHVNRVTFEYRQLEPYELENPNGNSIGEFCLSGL
# runDescription: activators of CRF receptor 2 with binding protein – uHTS hits, confirmation (AID 602473)
# Assay type: functional
# cond: read-out: EC50_Mean
Counter-ions that a name gives are not always drawn. Calls of active or inactive are those of the source.

>  <molecule>
COc1cccc(N2CCN(S(=O)(=O)c3c(C)[nH]c(C)c3C(=O)N3CCCC3)CC2)c1

>  <EC50>
> 53 µM (inactive)

$$$$
>  <molecule>
O=C(OCc1cc(=O)n2ccsc2n1)C1(c2ccccc2)CC1

>  <EC50>
> 53 µM (inactive)

$$$$
>  <molecule>
COC(=O)CCCC1=CC2=C(c3ccccc3)C(=O)C(C)(OC(=O)C3CCCC3)C(=O)C2=CN1CCc1ccccn1 (stereo unspecified)

>  <EC50>
> 53 µM (inactive)

$$$$
>  <molecule>
CCCCCCCCCSc1nnc(N)[nH]1

>  <EC50>
> 53 µM (inactive)

$$$$
>  <molecule>
O=C(CSCC(=O)Nc1cccc([N+](=O)[O-])c1)Nc1ccccc1

>  <EC50>
> 53 µM (inactive)

$$$$
>  <molecule>
COc1ccc(/C=C/c2c([N+](=O)[O-])c(=O)n(C)c(=O)n2C)cc1O

>  <EC50>
> 53 µM (inactive)

$$$$
>  <molecule>
C=Cn1cc[n+](CC(=O)c2ccc(Cl)cc2)c1

>  <EC50>
> 53 µM (inactive)

$$$$
>  <molecule>
CC(C)Cn1c(SCC(=O)N2CCc3ccccc3C2)nc2cc(Cl)ccc2c1=O

>  <EC50>
> 53 µM (inactive)

$$$$
>  <molecule>
O=C(C1CC(=O)N(c2ccc(Br)cc2)C1)N1CCCC1 (stereo unspecified)

>  <EC50>
> 53 µM (inactive)

$$$$
>  <molecule>
CCCCc1nc2ccccc2c(NC(=O)CN(CC)CC)c1CCC

>  <EC50>
> 53 µM (inactive)

$$$$
>  <molecule>
O=C(O)c1cnc(-c2ccccc2)nc1Sc1ccc(Cl)cc1Cl

>  <EC50>
> 53 µM (inactive)

$$$$
>  <molecule>
C=C(C)Cn1c(=O)c2c(nc3n2CC(C)CN3Cc2ccccc2)n(C)c1=O (stereo unspecified)

>  <EC50>
> 53 µM (inactive)

$$$$
>  <molecule>
CNc1nc(N(C)C)nc(N(C)C)n1 [PENTAMETHYL MELAMINE]

>  <EC50>
> 53 µM (inactive)

$$$$
>  <molecule>
C=CCOC(=O)C(C#N)c1nc2ccccc2nc1N1CCN(c2ccccc2OCC)CC1 (stereo unspecified)

>  <EC50>
> 53 µM (inactive)

$$$$
>  <molecule>
O=C(NCc1ccc(OC(F)(F)F)cc1)c1cccc2c1C(=O)c1ccc(N3CCCC3)cc1S2(=O)=O

>  <EC50>
11.8 µM (active)

$$$$
>  <molecule>
CCN1C(c2ccccc2)C(C)C(=O)C(C)C1c1ccccc1 (stereo unspecified)

>  <EC50>
> 53 µM (inactive)

$$$$
>  <molecule>
CC1(C(=O)NC(=S)NNC(=O)c2ccncc2)CCCCC1

>  <EC50>
4.91 µM (active)

$$$$
>  <molecule>
COc1ccccc1N(CC(=O)N1CCCCC1C)S(=O)(=O)c1ccc(Cl)cc1 (stereo unspecified)

>  <EC50>
5.95 µM (active)

$$$$
>  <molecule>
c1ccc(C2CN3CCSC3=N2)cc1 (stereo unspecified) [TETRAMISOLE HYDROCHLORIDE]

>  <EC50>
> 53 µM (inactive)

$$$$
>  <molecule>
CCCn1c(C(C)NS(=O)(=O)c2ccccc2)n[nH]c1=S (stereo unspecified)

>  <EC50>
> 53 µM (inactive)

$$$$
>  <molecule>
CC1(C)C(/C=C/C=C/C=C/C=C2\N(CCCCS(=O)(=O)O)c3ccc4ccccc4c3C2(C)C)=[N+](CCCCS(=O)(=O)[O-])c2ccc3ccccc3c21 [INDOCYANINE GREEN]

>  <EC50>
> 53 µM (inactive)

$$$$
>  <molecule>
CCOC(=O)c1c(CC(C)C)csc1N

>  <EC50>
> 53 µM (inactive)

$$$$
>  <molecule>
CC(=O)Oc1ccc2cc(-c3cccnc3)c(=O)oc2c1

>  <EC50>
> 53 µM (inactive)

$$$$
>  <molecule>
Cc1cc2nc(/C(C#N)=C\c3ccc(-c4ccccc4C(=O)O)o3)[nH]c2cc1C

>  <EC50>
5.8 µM (active)

$$$$
>  <molecule>
CC(Oc1ccc(Cl)cc1)C(=O)Nc1ccccc1N1CCOCC1 (stereo unspecified)

>  <EC50>
7.37 µM (active)

$$$$
>  <molecule>
Fc1ccccc1CNC(=S)Nc1ccc(Cl)cc1

>  <EC50>
> 53 µM (inactive)

$$$$
